As shown below, each of these compounds has a reported Ke value.
- target_system: Mu-type opioid receptor (Homo sapiens) (UniProt P35372)
- Sequence (P35372 whole entry): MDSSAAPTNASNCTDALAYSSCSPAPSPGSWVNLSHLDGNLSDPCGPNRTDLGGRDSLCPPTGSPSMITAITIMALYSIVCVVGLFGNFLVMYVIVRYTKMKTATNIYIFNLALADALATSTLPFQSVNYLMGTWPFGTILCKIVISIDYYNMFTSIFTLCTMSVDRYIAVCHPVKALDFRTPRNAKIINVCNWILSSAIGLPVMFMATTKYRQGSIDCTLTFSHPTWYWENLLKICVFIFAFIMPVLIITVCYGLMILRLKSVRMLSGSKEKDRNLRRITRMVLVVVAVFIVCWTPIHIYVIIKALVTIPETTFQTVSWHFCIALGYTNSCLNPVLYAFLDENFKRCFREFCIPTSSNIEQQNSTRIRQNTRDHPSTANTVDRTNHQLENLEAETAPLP
- run_conditions: CHO
- Description: Antagonist activity at human mu opioid receptor expressed in CHO cells assessed as inhibition of DAMGO-stimulated [35S]GTPgammaS binding
State the value with its unit after it.

As a guide, the following entries are already answered.
smi: Cc1cc(C)cc(Oc2ccc(C(=O)N[C@H](CN3CCN(c4cccc(O)c4)[C@@H](C)C3)C(C)C)cc2)c1
result: 25 nM
//
smi: CC(C)[C@@H](CN1CCN(c2cccc(O)c2)[C@@H](C)C1)NC(=O)c1ccc(Oc2cccc(F)c2)cc1
result: 30 nM
//
smi: CC(C)[C@@H](CN1CCN(c2cccc(O)c2)[C@@H](C)C1)NC(=O)c1ccc(Oc2cccc(Br)c2)cc1
result: 17 nM
//
smi: CC(C)[C@@H](CN1CCN(c2cccc(O)c2)[C@@H](C)C1)NC(=O)c1ccc(Oc2ccccc2)nc1
result: 60 nM
//
smi: COc1cc(C(=O)N[C@H](CN2CCN(c3cccc(O)c3)[C@@H](C)C2)C(C)C)ccc1Oc1cccc(C)c1
result: 35.1 nM
//
smi: Cc1cc(C(=O)N[C@H](CN2CCN(c3cccc(O)c3)[C@@H](C)C2)C(C)C)ccc1Oc1ccccc1
result: 15 nM
//
smi: CC(C)[C@@H](CN1CCN(c2cccc(O)c2)[C@@H](C)C1)NC(=O)c1ccc(Oc2ccccc2O)cc1
result: 125 nM

Consider the record given below.
Supply measured Ke of COc1cccc(Oc2ccc(C(=O)N[C@H](CN3CCN(c4cccc(O)c4)[C@@H](C)C3)C(C)C)cc2)c1 in your reply.
33 nM
